# targetSystem: T1, Human CD93 on the cell surface (human CD93 expressing CHO cells; HUVEC, U937 and KG1a cells) (human, UniProt Q9NPY3 22-652)
# T1 construct: whole, on cells; also called hCD93 CHO cells; CHO-hCD93
# T1 sequence (looked up): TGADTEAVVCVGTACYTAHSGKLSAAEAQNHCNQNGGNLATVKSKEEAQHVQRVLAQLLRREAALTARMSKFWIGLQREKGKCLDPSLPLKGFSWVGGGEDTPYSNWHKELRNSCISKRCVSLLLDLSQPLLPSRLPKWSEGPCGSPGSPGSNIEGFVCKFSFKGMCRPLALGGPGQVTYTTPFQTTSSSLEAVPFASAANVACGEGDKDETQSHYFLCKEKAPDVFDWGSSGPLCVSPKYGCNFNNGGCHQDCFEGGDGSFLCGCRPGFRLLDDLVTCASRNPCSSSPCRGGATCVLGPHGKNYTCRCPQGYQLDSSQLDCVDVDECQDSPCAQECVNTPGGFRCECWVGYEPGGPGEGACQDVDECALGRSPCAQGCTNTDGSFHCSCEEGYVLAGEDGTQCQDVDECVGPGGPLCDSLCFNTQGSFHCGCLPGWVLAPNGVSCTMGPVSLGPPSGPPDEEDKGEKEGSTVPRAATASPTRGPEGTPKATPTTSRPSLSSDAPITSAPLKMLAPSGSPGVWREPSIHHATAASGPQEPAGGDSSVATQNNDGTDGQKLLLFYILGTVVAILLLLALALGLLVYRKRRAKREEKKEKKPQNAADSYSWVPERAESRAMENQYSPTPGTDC
# assayComment: summary table, column 'Binding' (assay not given)
measuredQuantity: binding result

binder	resultValue
19E12 (antibody, V domains shown, Mouse hybridoma monoclonal antibody) VH: QVQLQQSGAELVRPGASVKLSCKASGYTFTDYEMHWVRQTPVHGLEWIGGIDPETGGTAYNQKFKGKATLTADKSSSTAYMELRSLTSEDSAVYYCTRGAWFAYWGQGTLVTVSA VL: QAVVTQESALTTSPGETVTLTCRSSTGAVTTSNSANWVQEKPDHLFTGLIGGTNNRAPGVPARFSGSLIGDKAALTITGAQTEDEAIYFCALWYNNHFVFGGGTKLTVL	binds
10B1 (antibody, V domains shown, Mouse hybridoma monoclonal antibody; also called 10B1 mAb) VH: QVQLKQSGPGLVQPSQSLSITCTVSDFSLSSFGVNWVRQPPGKGLEWLGVIWSGGSTDYNVAFISRLSISKDNSKSQVFFKMNNLQADDTAIYYCARNWRYDGYFYAMDYWGQGTSVTVSS VL: DIVMTQSQKFMSTSTGDRVSVTCKASQNVGTNVAWYQQKPGQSPKALIYSASYRFIGVPDRFTGSGSGTDFTLTITNVQSEDLAEYFCQQYNRNPITFGSGTKLEIK	binds
16B6 (antibody, V domains shown, Mouse hybridoma monoclonal antibody) VH: QVQLQQSGPELVKPGASVKISCKASGYAFSRSWMNWVKQRPGKGLEWIGWIYPGDGDTNYNGKFKGKATLTADKSSSTAYMQLSSLTSEDSAAYFCARSATLPYWYFDVWGAGTTVTVSS VL: DIKMTQSPSSMYASLGERVTITCKASQDIKSYLSWYQQKPWKSPKTLIYYATNLADGVPSRFSGSGSGQDYSLTISSLGSDDTATYYCLQHVESPWTFGGGTKLEIK	binds

Attribution: patent US20230235075A1
